Substrate: vinyl propionate
experimental-parameters: pH 7; 25 °C
endpoint-name: kcat

unnamed (protein) MRSSLVLFFVSAWTALASPIRREVSQDLFNQFNLFAQYSAAAYCGKNNDAPAGTNITCTGNACPEVEKADATFLYSFEDSGVGDVTGFLALDNTNKLIVLSFRGSRSIENWIGNLNFDLKEINDICSGCRGHDGFTSSWRSVADTLRQKVEDAVREHPDYRVVFTGHSLGGALATVAGADLRGNGYDIDVFSYGAPRVGNRAFAEFLTVQTGGTLYRITHTNDIVPRLPPREFGYSHSSPEYWIKSGTLVPVTRNDIVKIEGIDATGGNNQPNIPDIPAHLWYFGLIGTCL : 1950 s⁻¹
unnamed (protein) MAKKDEHLRKPEWLKIKLNTNENYTGLKKLMRENNLHTVCEEAKCPNIHECWAVRRTATFMILGSVCTRACRFCAVKTGLPTELDLQEPERVADSVALMNLKHAVITAVARDDQKDGGAGIFAETVRAIRRKSPFTTIEVLPSDMGGNYDNLKTLMDTRPDILNHNIETVRRLTPRVRARATYDRSLEFLRRAKEMQPDIPTKSSIMIGLGETKEEIIEVMDDLLANNVDIMAIGQYLQPTKKHLKVQKYYHPDEFAELKEIAMQKGFSHCEAGPLVRSSYHADEQVNEASKKRQAQA : 1940 s⁻¹
unnamed (protein) MLDMPIDPVYYQLAEYFDSLPKFDQFSSAREYREAINRIYEERNRQLSQHERVERVEDRTIKGRNGDIRVRVYQQKPDSPVLVYYHGGGFVICSIESHDALCRRIARLSNSTVVSVDYRLAPEHKFPAAVYDCYDATKWVAENAEELRIDPSKIFVGGDSAGGNLAAAVSIMARDSGEDFIKHQILIYPVVNFVAPTPSLLEFGEGLWILDQKIMSWFSEQYFSREEDKFNPLASVIFADLENLPPALIITAEYDPLRDEGEVFGQMLRRAGVEASIVRYRGVLHGFINYYPVLKAARDAINQIAALLVFD : 200 s⁻¹
unnamed (protein) MVLKQRANYLGFLIVFFTAFLVEAVPIKRQSNSTVDSLPPLIPSRTSAPSSSPSTTDPEAPAMSRNGPLPSDVETKYGMALNATSYPDSVVQAMSIDGGIRAATSQEINELTYYTTLSANSYCRTVIPGATWDCIHCDATEDLKIIKTWSTLIYDTNAMVARGDSEKTIYIVFRGSSSIRNWIADLTFVPVSYPPVSGTKVHKGFLDSYGEVQNELVATVLDQFKQYPSYKVAVTGHSLGGATALLCALDLYQREEGLSSSNLFLYTQGQPRVGDPAFANYVVSTGIPYRRTVNERDIVPHLPPAAFGFLHAGEEYWITDNSPETVQVCTSDLETSDCSNSIVPFTSVLDHLSYFGINTGLCT : 3680 s⁻¹
